Values compiled from ChEMBL document CHEMBL3616378.

Experiment Description: Plasma concentration in Sprague-Dawley rat at 3 mg/kg, ip after 1 hr
Assay type: ADME, organism-based
Assay Metric: concentration at 1 h

* N[C@@]1(C(=O)O)C[C@@H](Sc2nc[nH]n2)[C@H]2[C@H](C(=O)O)[C@H]21 | 4.98 µM

* * *

Measurement Target: Metabotropic glutamate receptor 3 (Homo sapiens, UniProt Q14832, D279E/Q306L)
Sequence (Q14832 23-879 D279E/Q306L limits assumed): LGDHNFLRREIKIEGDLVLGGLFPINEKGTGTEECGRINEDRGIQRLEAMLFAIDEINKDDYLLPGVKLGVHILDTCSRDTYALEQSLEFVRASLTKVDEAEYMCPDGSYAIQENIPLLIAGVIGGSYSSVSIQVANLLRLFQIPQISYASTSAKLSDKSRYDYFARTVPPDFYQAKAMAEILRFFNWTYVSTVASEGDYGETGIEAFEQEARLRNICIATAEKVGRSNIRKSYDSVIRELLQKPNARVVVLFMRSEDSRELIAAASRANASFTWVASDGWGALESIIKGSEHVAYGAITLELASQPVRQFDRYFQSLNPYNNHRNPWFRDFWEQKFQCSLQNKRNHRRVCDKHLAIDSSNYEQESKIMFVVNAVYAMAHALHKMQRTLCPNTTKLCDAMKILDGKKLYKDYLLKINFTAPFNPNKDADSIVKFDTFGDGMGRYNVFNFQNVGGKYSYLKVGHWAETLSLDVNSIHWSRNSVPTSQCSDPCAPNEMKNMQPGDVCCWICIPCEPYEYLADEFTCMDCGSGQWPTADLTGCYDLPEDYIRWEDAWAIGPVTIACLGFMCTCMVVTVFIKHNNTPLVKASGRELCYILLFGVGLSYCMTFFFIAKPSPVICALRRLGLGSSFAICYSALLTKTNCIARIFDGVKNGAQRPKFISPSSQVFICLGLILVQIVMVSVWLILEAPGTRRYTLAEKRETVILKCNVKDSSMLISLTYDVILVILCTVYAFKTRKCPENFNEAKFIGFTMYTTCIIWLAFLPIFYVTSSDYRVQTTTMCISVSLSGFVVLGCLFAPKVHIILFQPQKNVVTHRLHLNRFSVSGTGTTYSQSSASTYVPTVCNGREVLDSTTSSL
Experiment Description: Agonist activity at human recombinant mGlu3 receptor D279E and Q306L mutant expressed in AV12 cells assessed as stimulation of Ca2+ mobilization after 1 hr by FLIPR assay
Format: functional, cell-based
# key: entry, value: EC50
Assay Metric: EC50

• N[C@@]1(C(=O)O)C[C@@H](Sc2nc[nH]n2)[C@H]2[C@H](C(=O)O)[C@H]21 = 1.17 µM
• N[C@@H](CCC(=O)O)C(=O)O = 5.12 µM

* * *

Experiment Description: Metabolic stability of the compound in dog hepatocytes assessed as loss of compound at 2 uM
Format: ADME, cell-based, Canis lupus familiaris, Hepatocyte
Experimental Parameters: read-out: Drug degradation
Assay Metric: metabolised at 2 µM

* N[C@@]1(C(=O)O)C[C@@H](Sc2nc[nH]n2)[C@H]2[C@H](C(=O)O)[C@H]21 | < 10%

* * *

Experiment Description: Half life in Sprague-Dawley rat at 1 mg/kg, iv
Type: ADME, organism-based
Experimental Parameters: in vivo
Assay Metric: half-life (min)

- N[C@@]1(C(=O)O)C[C@@H](Sc2nc[nH]n2)[C@H]2[C@H](C(=O)O)[C@H]21: 198

* * *

Experiment Description: Drug level in Sprague-Dawley rat cerebrospinal fluid at 10 mg/kg, ip after 1 hr
Assay type: ADME, organism-based
Experimental Parameters: read-out: Drug uptake
Assay Metric: concentration at 1 h (nM)

• N[C@@]1(C(=O)O)C[C@@H](Sc2nc[nH]n2)[C@H]2[C@H](C(=O)O)[C@H]21 = 272

* * *

# key: entry, value: pIC50
Measurement Target: Metabotropic glutamate receptor 3 (Homo sapiens)
Experiment Description: Antagonist activity at human recombinant mGlu3 receptor expressed in AV12 cells assessed as inhibition of glutamate-stimulated Ca2+ mobilization after 1.5 hrs by FLIPR assay
Assay type: functional, cell-based
pIC50: −log10 of the molar value.
Assay Metric: pIC50

• N[C@@]1(C(=O)O)C[C@@H](Sc2c[nH]nn2)[C@H]2[C@H](C(=O)O)[C@H]21 = 5.26
• Cc1nnc(S[C@H]2C[C@@](N)(C(=O)O)[C@@H]3[C@@H](C(=O)O)[C@@H]32)[nH]1 = 5.44
• Nc1nnc(S[C@H]2C[C@@](N)(C(=O)O)[C@@H]3[C@@H](C(=O)O)[C@@H]32)[nH]1 = 5.41
• N[C@@]1(C(=O)O)C[C@H](Sc2nnc(C(F)F)[nH]2)[C@H]2[C@H](C(=O)O)[C@H]21 = 6.61
• N[C@@]1(C(=O)O)C[C@@H](Sc2nc[nH]n2)[C@H]2[C@H](C(=O)O)[C@H]21 = 4.60
• N[C@@]1(C(=O)O)C[C@H](Sc2n[nH]c(C(F)(F)F)n2)[C@H]2[C@H](C(=O)O)[C@H]21 = 6.20
• N[C@@]1(C(=O)O)C[C@@H](Sc2nnc(C(F)F)[nH]2)[C@H]2[C@H](C(=O)O)[C@H]21 = 6.81
• N[C@@]1(C(=O)O)C[C@H](Sc2c[nH]nn2)[C@H]2[C@H](C(=O)O)[C@H]21 = 5.55
• CC(C)c1nc(S[C@H]2C[C@@](N)(C(=O)O)[C@@H]3[C@@H](C(=O)O)[C@@H]32)n[nH]1 = 5.63
• N[C@@]1(C(=O)O)C[C@H](Sc2nnc[nH]2)[C@H]2[C@H](C(=O)O)[C@H]21 = 5.51
• Nc1nnc(S[C@@H]2C[C@@](N)(C(=O)O)[C@@H]3[C@@H](C(=O)O)[C@@H]32)[nH]1 = 7.02
• N[C@@]1(C(=O)O)C[C@@H](Sc2ccccc2)[C@H]2[C@H](C(=O)O)[C@H]21 = 5.11
• N[C@@]1(C(=O)O)C[C@H](Sc2ccccc2)[C@H]2[C@H](C(=O)O)[C@H]21 = 5.17
